Origin of values: the supplement of paper PMC7724964

Quick reference for phage ELISA signal ratio among some binders
- assayed target: T1, GIGYF2 507-602 GYF (domain begin residue: 507, domain end residue: 602), Q6Y7W6
- T1 chain: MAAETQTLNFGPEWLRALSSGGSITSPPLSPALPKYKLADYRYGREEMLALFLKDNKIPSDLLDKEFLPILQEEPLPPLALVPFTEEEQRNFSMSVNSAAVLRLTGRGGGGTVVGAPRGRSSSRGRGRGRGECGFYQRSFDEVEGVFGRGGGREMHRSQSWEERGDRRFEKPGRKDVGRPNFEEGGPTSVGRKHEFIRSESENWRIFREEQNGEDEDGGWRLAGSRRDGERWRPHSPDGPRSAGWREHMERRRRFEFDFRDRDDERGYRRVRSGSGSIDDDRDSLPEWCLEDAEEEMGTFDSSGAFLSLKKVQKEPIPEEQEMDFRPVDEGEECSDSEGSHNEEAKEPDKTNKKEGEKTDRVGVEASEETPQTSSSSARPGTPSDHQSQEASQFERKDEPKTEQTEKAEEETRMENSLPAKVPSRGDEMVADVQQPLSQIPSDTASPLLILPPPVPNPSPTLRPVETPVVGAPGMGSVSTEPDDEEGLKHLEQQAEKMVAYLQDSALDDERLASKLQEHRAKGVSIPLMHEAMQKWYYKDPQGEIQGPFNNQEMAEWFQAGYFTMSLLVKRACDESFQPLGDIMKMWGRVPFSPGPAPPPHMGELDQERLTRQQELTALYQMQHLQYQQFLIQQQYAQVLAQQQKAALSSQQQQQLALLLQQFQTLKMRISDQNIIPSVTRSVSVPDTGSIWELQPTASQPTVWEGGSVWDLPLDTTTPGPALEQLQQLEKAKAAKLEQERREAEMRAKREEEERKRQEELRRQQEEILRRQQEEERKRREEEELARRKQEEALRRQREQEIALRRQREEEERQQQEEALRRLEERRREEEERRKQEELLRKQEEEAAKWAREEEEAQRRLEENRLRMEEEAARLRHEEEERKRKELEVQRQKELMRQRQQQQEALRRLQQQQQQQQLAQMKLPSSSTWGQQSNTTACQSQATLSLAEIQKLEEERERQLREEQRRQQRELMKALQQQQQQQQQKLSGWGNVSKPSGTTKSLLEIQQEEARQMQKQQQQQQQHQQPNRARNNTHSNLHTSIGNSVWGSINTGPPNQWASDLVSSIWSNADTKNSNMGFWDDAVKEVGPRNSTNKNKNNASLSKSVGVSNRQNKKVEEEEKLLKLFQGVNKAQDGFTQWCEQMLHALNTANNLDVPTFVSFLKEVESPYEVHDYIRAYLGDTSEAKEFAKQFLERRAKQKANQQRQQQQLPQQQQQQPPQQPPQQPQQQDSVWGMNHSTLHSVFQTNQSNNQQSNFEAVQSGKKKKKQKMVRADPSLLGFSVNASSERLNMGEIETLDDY
- method description: phage ELISA signal ratio (GST-PRM binding over GST background); higher = stronger binding of peptide-phage to the PRM

>  <binder>
RFPPGMMQQLPQYADS

>  <phage ELISA signal ratio>
29.9

$$$$
>  <binder>
QRPPGNWGEVTQVPIL

>  <phage ELISA signal ratio>
9.77

$$$$
>  <binder>
EGMGPPGFWVGSDLRG

>  <phage ELISA signal ratio>
14.7

$$$$
>  <binder>
EPPGWEVRQPGMVQVQ

>  <phage ELISA signal ratio>
17.5

$$$$
>  <binder>
ARDLPPGFVMSPENAM

>  <phage ELISA signal ratio>
11.7

$$$$
>  <binder>
QPPPGWVPSTELLEFL

>  <phage ELISA signal ratio>
23.1

$$$$
>  <binder>
NYPNHPPGYEKWFQTM

>  <phage ELISA signal ratio>
26.6

$$$$
>  <binder>
NMFMPPGFAPQQVQMH

>  <phage ELISA signal ratio>
13.9

$$$$
